Provenance of the data: patent US5051431A

Test system: guinea pig left atria
assay.name: Guinea Pig Left Atria Test: direct effect on force of atrial contraction
Format: cell-based
applied.conditions: Cavia porcellus; guinea pig left atria, 31° C.; propranolol and phentolamine (1.0 micromolar each) present; read-out: ED50 (concentration producing an inotropic response half that of the maximal response produced by the test compound)

[
  {
    "molecule": "Cc1[nH]c(=O)c(C#N)cc1-c1ccc(OCCCC(=O)NCCNCC(O)COc2ccccc2)cc1 (stereo not shown)",
    "experimental.system": "guinea pig left atria",
    "EC50, µM": 13
  }
]
